- ASSAY_TARGET: T1, 4H3129-bN
- T1 chain: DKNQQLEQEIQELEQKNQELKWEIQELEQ
- ASSAY_METHOD_TEXT: two-hybrid library CCNG1;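 further: natural log of median RNA to DNA barcode read ratio; higher means stronger binding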
MEASUREMENT_NAME: interaction score
Lab note: jot down the number only; don't add units.

Look up interaction score for this binder: DENQQLKQKNQELKQEIQELEWEIQELEQ [4H1985-bN]
-2.06

And what about the binder DENQQLEQKIQELKQEIQELKWKNQELEQ [4H1359-bN] ?
-0.57

And what about the binder DKNQQLEQEIQELEQKNQELKWEIQELEQ [4H3129-bN] ?
-0.749

Origin of the recorded values: paper PMC10397247
